system: MS2 coat protein; assay: apparent Kd, MS2 coat protein; higher = weaker binding; RNA-MaP array; FMN 200 µM where present; conditions: ligand present: flavin mononucleotide; designed as: OFF switch for flavin mononucleotide

{"Sequence Record": "CCAGCGUGUGUGAGGAUAUGCUGGUCCUUGGAUCAGCAGAAGGCACAUGAGGAUCACCCAUGUGAGAGCGUUGG", "apparent Kd, nM": 86.1}
{"Sequence Record": "GUGUAGAGAGGAUAUACAUGAGGAUCACCCAUGUGAAUAAGAUAGAAUAAGAUAAAGUGUAGAAGGCUUAGUGU", "apparent Kd, nM": 25.9}
{"Sequence Record": "CAUCUGUGAGGAUAUGGUGAGUAGUGCCUGAGCGCUGCUCACCAGAAGGCACAUGAGGAUCACCCAUGUAUGAA", "apparent Kd, nM": 214}
{"Sequence Record": "UGUCGGAGCAGAGGAUAUUACAUGAGGAUCACCCAUGUAUGAACCAAUAGCUGGAAAUAGCAAUGUAAGAAGGCUGCUCCGACA", "apparent Kd, nM": 168}
{"Sequence Record": "ACAUGAUCAGGAUAUACAUGAGGAUCACCCAUGUUUAUCAAAAAAGGGCCUUCUACAUGUAGAAGGGAUCUUGU", "apparent Kd, nM": 15.1}
{"Sequence Record": "CAGUACUGAGGAUAUACAUGAGGAUCACCCAUGUGUUCCAGCUAGGAAACUAGCAAUAGUAGAAGGCAGUACUG", "apparent Kd, nM": 315}
{"Sequence Record": "ACACGGUAUGUAGGAUAUGCAUAGCAUUGCUAUGCAGAAGGACAUGAGGAUCACCCAUGUAUGUAUUCCAUACUAAUCCCGUGA", "apparent Kd, nM": 5.88}
{"Sequence Record": "GUUUCACAUGAGGAUCACCCAUGUGAGGAUAUCUAUUUGUUAACCGUAGUUAAUAGAUAGAGAAGGCGCGUGAU", "apparent Kd, nM": 74.5}
{"Sequence Record": "CGGGUCUGAGGAUAUCCAUCCUCAUACAUGAGGAUCACCCAUGUUCACCCUUGGGUUCCCGGAGAAGGCAGUUUUC", "apparent Kd, nM": 177}
{"Sequence Record": "UUUGGUUUGCGAGGAUAUGCUUUUAGUAAGUUAGCAGAAGGCGCGUUACAUAGAACCUCUUGUUACAUGAGGAUCACCCAUGUU", "apparent Kd, nM": 95}
{"Sequence Record": "UUUUAGCGAGGAUAUACAUUUUUUUUAUUAUCCUCAUUAUUACAUGAGGAUCACCCAUGUAGAAGGCGCAUUUU", "apparent Kd, nM": 139}
{"Sequence Record": "GGUUACAAGUAAGGAUAUGCAUAUGAAACAUAUGCAGAAGGUACAUGAGGAUCACCCAUGUUAUUGCAAAGCGAAUAAGUAACC", "apparent Kd, nM": 20.9}
{"Sequence Record": "ACCGCUCGAGGAUAUACAUGAGGAUCACCCAUGUAACCCAGAAGCAAGGCCUCAGGAUGUAGAAGGCGACGCAA", "apparent Kd, nM": 14.2}

From: the EternaBench riboswitch data
